Tested on: OVCAR-3 ovarian
Assay: NCI-60 one-dose screen, 48 h (100 = growth as untreated, 0 = no growth, -100 = all killed)
Conditions: 10 µM unless noted
Compounds without any hit were thinned out: in the full panel of roughly 83,000, 20% have a hit.
Experimental readout: growth (%)

>  <Compound>
Nc1ccc(-c2nc3cc(Oc4ccc(Oc5ccc6[nH]c(-c7ccc(N)cc7)nc6c5)cc4)ccc3[nH]2)cc1

>  <Experimental readout>
growth

>  <Endpoint unit>
%

>  <Numeric result>
122

$$$$
>  <Compound>
COc1cc2nc(-c3cccc4cccnc34)nc(NC3CCN(Cc4ccccc4)CC3)c2cc1OC

>  <Experimental readout>
growth

>  <Endpoint unit>
%

>  <Numeric result>
-85.9

$$$$
>  <Compound>
O=C(NN1C(=O)CSC1c1ccc(Cl)cc1)c1[nH]c2ccc(F)cc2c1-c1ccccc1 (stereo not drawn)

>  <Experimental readout>
growth

>  <Endpoint unit>
%

>  <Numeric result>
47.9

$$$$
>  <Compound>
CN1CCN(Cc2ccc(C(=O)Nc3cncc(C#Cc4cnc5cccnn45)c3)cc2C(F)(F)F)CC1

>  <Experimental readout>
growth

>  <Endpoint unit>
%

>  <Numeric result>
63.3

$$$$
>  <Compound>
Cc1ccc(Cc2cnc(NC(=O)CN3C(=O)/C(=C\c4ccccc4)SC3=S)s2)cc1

>  <Experimental readout>
growth

>  <Endpoint unit>
%

>  <Numeric result>
112

$$$$
>  <Compound>
O=C(/C=C/c1ccc(F)cc1)c1ccc(Nc2nc(NCCO)nc(Nc3ccc(Cl)cc3)n2)cc1

>  <Experimental readout>
growth

>  <Endpoint unit>
%

>  <Numeric result>
77

$$$$
>  <Compound>
Oc1ccc(-c2nc(-c3ccc4oc5ccc(-c6[nH]c(-c7ccc(O)cc7)nc6-c6ccccc6)cc5c4c3)c(-c3ccccc3)[nH]2)cc1

>  <Experimental readout>
growth

>  <Endpoint unit>
%

>  <Numeric result>
43.6

$$$$
>  <Compound>
O=Cc1c(OCc2cnnn2CC(=O)Nc2ccc(Cl)cc2)ccc2ccccc12

>  <Experimental readout>
growth

>  <Endpoint unit>
%

>  <Numeric result>
103

$$$$

###

Tested on: SN12C renal
Experiment: NCI-60 one-dose screen, 48 h
Conditions: 10 µM unless noted
This is part of a sample that, as a whole, favours compounds with a hit. Of some 83,000 tested, about 20% had one in any assay. Activity calls are given as the source filed them. How the source made its calls: active means growth percent below 10; inactive means the rest.
Classes used: active, inactive

>  <Compound>
O=C1c2cc(I)ccc2Oc2cc([N+](=O)[O-])ccc2N1c1ccc(Cl)cc1F

>  <Class assignment>
inactive

$$$$
>  <Compound>
CCOC(=O)c1sc(-c2ccc(OS(=O)(=O)c3cccs3)c(C=O)c2)nc1C

>  <Class assignment>
active

$$$$
>  <Compound>
O=C(CCN1C(=O)c2ccccc2C1=O)Nc1ccc(Cl)cc1

>  <Class assignment>
inactive

$$$$
>  <Compound>
Cc1ccccc1CNC(=O)C1CN(c2ccc(Cl)cc2)N(c2ccc(Cl)cc2)C1=O (stereo not given)

>  <Class assignment>
inactive

$$$$
>  <Compound>
CCOC(=O)c1cc2c(n1Cc1cccc(OC)c1)-c1oncc1CCC2

>  <Class assignment>
inactive

$$$$
>  <Compound>
CCOC(=O)C1(Cc2ccccc2)CCN(Cc2cccc(OC)c2O)CC1

>  <Class assignment>
inactive

$$$$
>  <Compound>
COc1cc(/C=C2\CN(S(=O)(=O)c3ccccc3)C/C(=C\c3cc(CN4CCCC4)c(O)c(OC)c3)C2=O)cc(CN2CCCC2)c1O

>  <Class assignment>
active

$$$$
>  <Compound>
O=C1c2cc(Cl)ccc2Oc2cc([N+](=O)[O-])ccc2N1c1ccc(F)cc1F

>  <Class assignment>
inactive

$$$$
>  <Compound>
O=C(N=Nc1c(O)[nH]c2ccccc12)c1oc2ccccc2c1CN1CCN(c2ccccc2)CC1

>  <Class assignment>
inactive

$$$$
>  <Compound>
O=C1NC(=S)NC(=O)C1=Cc1cn(Cc2cn(Cc3cccc4ccccc34)nn2)c2ccccc12

>  <Class assignment>
inactive

$$$$
>  <Compound>
Cc1cccc2c(=O)c3c(sc12)c(NCCCNCCO)nc1ccccc13

>  <Class assignment>
inactive

$$$$
>  <Compound>
CC(C)(C)c1ccc(C2CC(=O)C3=C(C2)Nc2ccccc2N(C(=O)c2ccccc2Cl)C3c2ccc(F)cc2)cc1 (stereo not given)

>  <Class assignment>
active

$$$$
>  <Compound>
Clc1ccc(-c2nnc(COc3ccc(C4=NNC(c5ccco5)C4)cc3)o2)cc1 (stereo not given)

>  <Class assignment>
inactive

$$$$
>  <Compound>
COc1ccc(-c2cn3c(C(=O)Nc4ccccc4Cl)c(-c4ccccc4)c4c3n2CCCC4)cc1

>  <Class assignment>
inactive

$$$$
>  <Compound>
Cn1c2c(c(=O)[nH]c1=O)NC1=C(C(=O)c3ccccc31)C1(C=C(O)c3ccccc31)N2 (stereo not given)

>  <Class assignment>
inactive

$$$$
>  <Compound>
COc1ccc(Cn2cc(Cn3cc(C=C4C(=O)NC(=O)NC4=O)c4ccccc43)nn2)cc1

>  <Class assignment>
inactive

$$$$
>  <Compound>
CC(C)CCNCC(O)Cn1c2ccccc2c2ccccc21 (stereo not given)

>  <Class assignment>
inactive

$$$$
>  <Compound>
COc1ccccc1CNC(=O)C1c2ccccc2C(=O)N(CC(C)C)C1c1cccs1 (stereo not given)

>  <Class assignment>
inactive

$$$$
>  <Compound>
O=C(Nc1ccc(Cl)cc1F)c1cc(F)ccc1O

>  <Class assignment>
active

$$$$
>  <Compound>
CCOC(=O)C1=C(C)N=c2s/c(=C\c3cc(Cl)ccc3O)c(=O)n2C1c1ccc(OC)cc1 (stereo not given)

>  <Class assignment>
inactive

$$$$

###

Tested on: T-47D breast
Test: NCI-60 one-dose screen, 48 h (100 = growth as untreated, 0 = no growth, -100 = all killed)
Settings: 10 µM unless noted
About 83,000 compounds went through this panel and 20% of them were active in at least one assay; those are over-represented in the sample as a whole. The source made the active and inactive calls. Rule for the calls: active = growth percent below 10; inactive = the rest.
Experimental readout: growth

>  <Structure notation>
O=c1cc(-c2ccccc2)oc2cc(OCc3cn(Cc4ccc(F)cc4)nn3)cc(OCc3cn(Cc4ccc(F)cc4)nn3)c12

>  <Experimental readout>
growth

>  <Result>
40.6% (inactive)

$$$$
>  <Structure notation>
CC[C@@H](C)[C@H](NC(=O)Cn1cc(CNC(=O)[C@@H](NC(=O)OCc2ccccc2)C(C)C)nn1)C(=O)O

>  <Experimental readout>
growth

>  <Result>
116% (inactive)

$$$$
>  <Structure notation>
COc1cc(CNC(=O)c2ccsc2Nc2ccnc(C(F)(F)F)c2)ccc1O

>  <Experimental readout>
growth

>  <Result>
98.7% (inactive)

$$$$
>  <Structure notation>
CC(=O)O[C@@H]1/C=C/C(=O)N[C@@H](C)CCC/C=C/[C@@H]2CCC[C@H]21

>  <Experimental readout>
growth

>  <Result>
98.6% (inactive)

$$$$

###

Tested on: HOP-62 NSCLC
Experiment: NCI-60 one-dose screen, 48 h (100 = growth as untreated, 0 = no growth, -100 = all killed)
Settings: 10 µM unless noted
Compounds without any hit were thinned out: in the full panel of roughly 83,000, 20% have a hit.

>  <Structure notation>
O=c1c2cc(F)ccc2sc2c(NCCN3CCCC3)nc3ccccc3c12

>  <System>
HOP-62 NSCLC

>  <growth (%)>
67.6

$$$$
>  <Structure notation>
O=C(NC(=S)Nc1cccc(NC(=S)NC(=O)c2ccccc2)c1)c1ccccc1

>  <System>
HOP-62 NSCLC

>  <growth (%)>
52.5

$$$$
>  <Structure notation>
CN(CCc1ccccc1)C(=S)N(C(=O)c1ccc([N+](=O)[O-])cc1)c1ccc(Cl)cc1

>  <System>
HOP-62 NSCLC

>  <growth (%)>
102

$$$$
>  <Structure notation>
CCCCN1CCN(c2ccc3nc(-c4ccc5nc(-c6ccc(OC)c(OC)c6)[nH]c5c4)[nH]c3c2)CC1

>  <System>
HOP-62 NSCLC

>  <growth (%)>
-1.2

$$$$
>  <Structure notation>
COc1cc(CNC(=O)Cc2ccccc2)ccc1OCc1cn(-c2ccc(F)cc2)nn1

>  <System>
HOP-62 NSCLC

>  <growth (%)>
104

$$$$

###

System: SNB-19 CNS
Test: NCI-60 one-dose screen, 48 h
Settings: 10 µM unless noted
The panel holds about 83,000 compounds, 20% with a hit somewhere; the sample as a whole holds those more often. The source made the active and inactive calls. Rule for the calls: active = growth percent below 10; inactive = the rest.
Outcome codes: active, inactive

>  <Compound>
Cc1ccc(S(=O)(=O)c2c(COC(=O)c3cccc(C)c3)c(-c3ccccc3)nn2C)cc1

>  <System>
SNB-19 CNS

>  <Class assignment>
inactive

$$$$
>  <Compound>
CCCCN1CCN(c2ccc3nc(-c4ccc5nc(-c6ccc(OC)c(OC)c6)[nH]c5c4)[nH]c3c2)CC1

>  <System>
SNB-19 CNS

>  <Class assignment>
active

$$$$
>  <Compound>
COc1ccc2sc3c(NCCCN)nc4ccccc4c3c(=O)c2c1

>  <System>
SNB-19 CNS

>  <Class assignment>
inactive

$$$$
>  <Compound>
CCC1=C[C@@H]2CN(C1)Cc1c([nH]c3ccccc13)[C@@](C(=O)OC)(c1cc3c(cc1OC)N(C)[C@H]1[C@@](O)(C(=O)OC)[C@H](OC(C)=O)[C@]4(CC)[C@@H]5C[C@@H]5CN5CC[C@]31[C@@H]54)C2

>  <System>
SNB-19 CNS

>  <Class assignment>
inactive

$$$$
>  <Compound>
CCOC(=O)CSc1c(-c2ccccc2)c2cc(Cl)ccc2[nH]c1=O

>  <System>
SNB-19 CNS

>  <Class assignment>
inactive

$$$$
>  <Compound>
CC1=CCC(OC(=O)C(C)(C)CCC(O)(C(=O)OC2(C(C)C)CCC3(C)OC3C2)C(C)C)(C(C)C)CC1 (stereo not given)

>  <System>
SNB-19 CNS

>  <Class assignment>
active

$$$$
>  <Compound>
O=Cc1cc2ccccc2nc1Nc1nccs1

>  <System>
SNB-19 CNS

>  <Class assignment>
inactive

$$$$
>  <Compound>
O=C(NCCCN1CCC(N2CCCCC2)CC1)C1=Cc2cc(Br)ccc2OC1

>  <System>
SNB-19 CNS

>  <Class assignment>
inactive

$$$$
>  <Compound>
CCCCc1c(CCC)c(=N)c2ccccc2n1C

>  <System>
SNB-19 CNS

>  <Class assignment>
inactive

$$$$
>  <Compound>
O=c1oc2ccc(I)cc2c(=O)n1-c1ccc(Br)cc1F

>  <System>
SNB-19 CNS

>  <Class assignment>
inactive

$$$$
>  <Compound>
O=c1oc2ccc(I)cc2c(=O)n1-c1ccc(I)cc1F

>  <System>
SNB-19 CNS

>  <Class assignment>
inactive

$$$$
>  <Compound>
CC[C@H](C)[C@@H](C(=O)OC)n1cc(CNC(=O)[C@@H](Cc2ccccc2)NC(=O)OCc2ccccc2)nn1

>  <System>
SNB-19 CNS

>  <Class assignment>
inactive

$$$$
>  <Compound>
O=C(Cn1cc(COc2ncnc3c2cnn3-c2ccccc2)nn1)Nc1ccccn1

>  <System>
SNB-19 CNS

>  <Class assignment>
inactive

$$$$
>  <Compound>
CN(C)CCNc1cc(-c2ccccc2)nc2ccccc12

>  <System>
SNB-19 CNS

>  <Class assignment>
inactive

$$$$
>  <Compound>
CCOC(=O)c1sc(-c2ccc(OS(=O)(=O)c3ccc(Br)s3)c(C=O)c2)nc1C

>  <System>
SNB-19 CNS

>  <Class assignment>
inactive

$$$$
>  <Compound>
COc1cc2nc(-c3cccc4cccnc34)nc(NC3CCN(Cc4ccccc4)CC3)c2cc1OC

>  <System>
SNB-19 CNS

>  <Class assignment>
active

$$$$
>  <Compound>
Cc1cccc2c(=O)c3c(sc12)c(NCCN)nc1ccccc13

>  <System>
SNB-19 CNS

>  <Class assignment>
active

$$$$
>  <Compound>
CCCCc1ccc(NS(=O)(=O)c2cc3c4c(c2)CCN4C(=O)CC3)cc1

>  <System>
SNB-19 CNS

>  <Class assignment>
inactive

$$$$
>  <Compound>
CC[C@]1(O)C[C@@H]2CN(CCc3c([nH]c4ccccc34)[C@@](C(=O)OC)(c3cc4c(cc3OC)N(C)[C@H]3[C@@](O)(C(=O)OC)[C@H](OC(C)=O)[C@]5(CC)C=CCN6CC[C@]43[C@@H]65)C2)C1

>  <System>
SNB-19 CNS

>  <Class assignment>
inactive

$$$$
>  <Compound>
COc1cc([C@@H]2NC(=O)NC(C)=C2C(=O)Nc2nc(-c3ccc(Cl)cc3)cs2)ccc1O

>  <System>
SNB-19 CNS

>  <Class assignment>
inactive

$$$$
